Reference source for all entries: patent US4745067A

Tested on: L-aminoacylase S1
Assay: Influence of metal ions on L-aminoacylase S1
Format: biochemical, Streptomyces hachijoensis
Settings: 1 mM metal salt, 37° C. one hour, substrate N-Ac-DB-DOPS, no metal added = 100%
For each record, check the reported Relative activity (%): if it is below 70% write yes (1), else write no (0).

compound	label.class
[Ag+] [Ag^+]	yes (1)
[Mg+2] [Mg^++]	no (0)
[Co+2] [Co^++]	no (0)
[Zn+2] [Zn^++]	no (0)
[Mn+2] [Mn^++]	yes (1)
[Fe+2] [Fe^++]	yes (1)
[Cu+2] [Cu^++]	yes (1)
[Ni+2] [Ni^++]	yes (1)
[Hg+2] [Hg^++]	yes (1)
